System: RXF 393 renal
Experiment: NCI tumour cell line growth inhibition, 48 h
Entries annotated with measured TGI
Recorded Endpoint: TGI

| Molecule | Result |
| --- | --- |
| Cc1c(NC(=S)NC(=O)c2ccc([N+](=O)[O-])cc2)c(=O)n(-c2ccccc2)n1C | > 100 µM |
| NCC(O)CSCc1ccc(Cl)cc1 (stereo unspecified) | > 100 µM |
| CC(=O)[O-].[Mn+3].[O-]c1ccccc1C=NCCNCCN=Cc1ccccc1[O-] | > 100 µM |
| Cc1c2cc(Cl)c3ccccc3c2c[n+]2ccccc12 | > 65.5 µM |
| O=c1[nH]c2nc(NC3CCOCC3)ncc2cc1Oc1ccc(F)cc1F | > 25 µM |
| O=S(=O)(NCn1ccc2ccccc21)c1ccccc1 | > 100 µM |

====

System: SK-MEL-2 melanoma
Assay: NCI tumour cell line growth inhibition, 48 h
Entries annotated with measured TGI
Recorded Endpoint: TGI

| Compound | Result |
| --- | --- |
| CN(C)CCCNc1ccc2nnn3c4ccc(O)cc4c(=O)c1c23 | 26.3 µM |
| O=S(=O)(NCn1ccc2ccccc21)c1ccccc1 | > 100 µM |
| CC(=O)OCC(=O)[C@@]12OC(C)(C)O[C@@H]1C[C@H]1[C@@H]3CC(C=O)=C4C=C(OCCCl)CC[C@]4(C)[C@@]3(F)[C@@H](O)C[C@@]12C | 58.6 µM |
| O=C(Oc1ccc(CO[N+](=O)[O-])cc1)c1ccccc1 | 0.322 µM |
| CC(C)(C)C(=CS(=O)/N=C/c1ccccc1)C(C)(C)C (stereo not given) | 34.4 µM |

====

System: HCC-2998 colon
Experiment: NCI tumour cell line growth inhibition, 48 h
Criterion: TGI meeting or surpassing 30 µM. Met: true (1). Not met: false (0).

| Smi | Label Value |
| --- | --- |
| O=C(Cc1ccc(Cl)c(Cl)c1)NCC1(N2CCCCC2)CCCCC1 | true (1) |
| O=c1cc(N/N=C/c2ccc(F)cc2)c2cc(Cl)ccc2[nH]1 | true (1) |
| CCOC(=O)c1cc(C)nc2c1c(=O)n(-c1ccccc1)c(=O)n2CCCCN1CCN(c2ccccc2)CC1 | true (1) |
| c1ccc(-c2nc(N3CCOCC3)c3c4c(sc3n2)CCCCCC4)nc1 | false (0) |
| Cc1c2c(c(C)c3c4c(oc13)CCCC4)C=NCC2 | true (1) |
| C=CCOn1c(C=C)nc2ccc(C)cc21 | true (1) |
| CC(C)(C)CC(C)(C)c1cc(O)c(O)c(CN2CCCCC2)c1 | false (0) |
| Cc1cc(C)c2c(c1)C(=O)/C(=C/c1ccccc1C(=O)O)C2 | true (1) |

====

Tested on: TK-10 renal
Assay: NCI tumour cell line growth inhibition, 48 h

| Compound | Study System | TGI |
| --- | --- | --- |
| C=C(C)CC1(O[Si](C)(C)C)C(=O)C(OCC)=C1OCC (stereo not drawn) | TK-10 renal | > 100 µM |
| Cn1c(=O)oc2nc(-c3ccccc3)cc(C(F)(F)F)c21 | TK-10 renal | > 100 µM |
| O=c1[nH]c2ccccc2n1CCCN1CCC(n2c(=O)[nH]c3cc(Cl)ccc32)CC1 | TK-10 renal | 39.4 µM |
| COc1ccc(C(=O)C(CC2C(=O)NC(=O)NC2=O)c2ccc(OC)cc2)cc1 (stereo not drawn) | TK-10 renal | > 100 µM |
| NNC(=O)C1(NC(=O)c2ccccc2)C(c2ccccc2)C(c2ccccc2)=NN1c1ccccc1 (stereo not drawn) | TK-10 renal | > 100 µM |
| C#Cc1nc2ccccc2c(=O)[nH]1 | TK-10 renal | 11.2 µM |
| C=C1C(=O)OC2CC(C)C3CC(O)OC(OCC)C3(C)CC12 (stereo not drawn) | TK-10 renal | 45.2 µM |
| CC1CCSC(N(C(=O)N(C)c2ccccc2)c2ccccc2)=N1 (stereo not drawn) | TK-10 renal | > 100 µM |
| CCc1cc2c(c3c1CCCC3=O)CC1(Cc3ccc(C(=O)OC)cc3C1)C2 (stereo not drawn) | TK-10 renal | > 100 µM |
| Cc1nc2ccc(NC(=O)CCNC(=O)CCCc3ccc(CC(C(=O)O)C(=O)O)cc3)cc2s1 | TK-10 renal | > 100 µM |
| CN(C)/N=N/c1nc2c(c(=O)n(C)c(=O)n2C)n1CC(O)CO (stereo not drawn) | TK-10 renal | > 100 µM |
| c1ccc(CN2CCC(Nc3ccccc3)(c3nnnn3Cc3ccccc3)CC2)cc1 | TK-10 renal | > 100 µM |
| O=C(Nn1c(-c2ccccc2)nc2ccccc2c1=O)c1ccccc1O | TK-10 renal | > 100 µM |
| Cc1nnc2n1N=C(c1ccc(Cl)cc1Cl)/C(=C/c1ccc(-c3ccc([N+](=O)[O-])cc3Cl)o1)S2 | TK-10 renal | 34.8 µM |
| COC(=O)COc1ccc(/C=C2/N=C(c3ccccc3)N(c3c(C)n(C)n(-c4ccccc4)c3=O)C2=O)cc1 | TK-10 renal | 34.1 µM |
| COc1cc(C2c3cc4c(cc3C3OC[C@@H]2C3CO)OCO4)cc(OC)c1OC (stereo partly drawn) | TK-10 renal | > 100 µM |
| COC(=O)CC(NC(=O)OCc1ccccc1)C(C(=O)OCc1ccccc1)C(C)(OC)OC (stereo not drawn) | TK-10 renal | > 100 µM |
| CCCC(=O)N[C@H]1C2C3CC4C5CC(C42)C1(C)C53 (stereo partly drawn) | TK-10 renal | > 100 µM |
